Hi there, I'd appreciate the recorded pIC50 for every entry that follows.
ASSAYED SYSTEM: Bromodomain-containing protein 4 (Homo sapiens, UniProt O60885)
ASSAY PROTOCOL: Inhibition of N-terminal His-tagged BRD4 (BD1) (unknown origin) using biotinylated tetra-acetylated histone H4 peptide after 30 mins by alpha-screen assay
Answers are plain numbers, as −log10 of the molar value.

Use the examples below as a reference point.
- COMPOUND: "Cc1noc(C)c1-c1cc(N)c2ncn(Cc3ccccc3)c2c1"
  RECORDED MEASUREMENT: 7.70
- COMPOUND: "Cc1noc(C)c1-c1ccc(=O)n(Cc2ccc(C3CO3)cc2)c1 (stereo unspecified)"
  RECORDED MEASUREMENT: 6.32
- COMPOUND: "Cc1noc(C)c1-c1cc(N)c2ncn(Cc3ccc(C4CO4)cc3)c2c1 (stereo unspecified)"
  RECORDED MEASUREMENT: 7.30
- COMPOUND: "Cc1noc(C)c1-c1ccc(=O)n(Cc2ccccc2)c1"
  RECORDED MEASUREMENT: 6.64
- COMPOUND: "Cc1noc(C)c1-c1ccc(=O)n(Cc2cccc(F)c2)c1"
  RECORDED MEASUREMENT: 5.97

Turning now to a further compound:
// query Could you share which pIC50 value was measured for Cc1noc(C)c1-c1ccc(=O)n(Cc2ccc(C3CO3)c(F)c2)c1 (stereo unspecified) ?
// result 6.80

###

ASSAYED SYSTEM: Bromodomain-containing protein 4 (Homo sapiens, UniProt O60885)
ASSAY PROTOCOL: Inhibition of N-terminal His-tagged BRD4 (BD1/BD2) (unknown origin) using biotinylated tetra-acetylated histone H4 peptide after 30 mins by alpha-screen assay
Hi there, I'd appreciate the recorded log10(IC50) for every entry that follows.
The base-10 logarithm of IC50, taken with IC50 in nM, is what appears here.

- COMPOUND: "Cc1noc(C)c1-c1cc(N)c2ncn(Cc3ccc(C4CO4)cc3)c2c1 (stereo not given)"
  log10(IC50): 1.78
- COMPOUND: "Cc1noc(C)c1-c1cc(N)c2ncn(Cc3ccccc3)c2c1"
  log10(IC50): 1.70
- COMPOUND: "Cc1noc(C)c1-c1ccc(=O)n(Cc2cccc(F)c2)c1"
  log10(IC50): 3.15
- COMPOUND: "Cc1noc(C)c1-c1ccc(=O)n(Cc2ccccc2)c1"
  log10(IC50): 2.45

Turning now to a further compound:
// query Could you share which log10(IC50) value was measured for Cc1noc(C)c1-c1ccc(=O)n(Cc2ccc(C3CO3)cc2)c1 (stereo not given) ?
// result 2.67

###

ASSAYED SYSTEM: Bromodomain-containing protein 4 (Homo sapiens, UniProt O60885)
ASSAY PROTOCOL: Inhibition of N-terminal His-tagged BRD4 (BD1) (unknown origin) using biotinylated tetra-acetylated histone H4 peptide after 5 mins by alpha-screen assay
Hi there, I'd appreciate the recorded pIC50 for every entry that follows.
One number for each entry, as −log10 of the molar value.

- COMPOUND: "Cc1noc(C)c1-c1cc(N)c2ncn(Cc3ccccc3)c2c1"
  ASSAYED SYSTEM: "Bromodomain-containing protein 4 (Homo sapiens, UniProt O60885)"
  pIC50: 7.77

// query Could you share which pIC50 value was measured for Cc1noc(C)c1-c1cc(N)c2ncn(Cc3ccc(C4CO4)cc3)c2c1 (configuration not stated) ?
// result 6.56
